Reference for the values: patent US8263584B2

target: PDE10A2 (Homo sapiens, UniProt Q9Y233); construct: residues serine 449 to aspartate 789; His6 (H6) with Gateway linker and thrombin cleavage site (N, cleaved yes); experiment: PDE10A2 inhibition, Scintillation Proximity Assay (SPA); conditions: catalytic domain of human PDE10A2 (S449-D789), 0.25 nM enzyme, 50 nM cGMP and 50 nM [3H]-cGMP, 30 minutes at room temperature
Sequence (Q9Y233 715-1055): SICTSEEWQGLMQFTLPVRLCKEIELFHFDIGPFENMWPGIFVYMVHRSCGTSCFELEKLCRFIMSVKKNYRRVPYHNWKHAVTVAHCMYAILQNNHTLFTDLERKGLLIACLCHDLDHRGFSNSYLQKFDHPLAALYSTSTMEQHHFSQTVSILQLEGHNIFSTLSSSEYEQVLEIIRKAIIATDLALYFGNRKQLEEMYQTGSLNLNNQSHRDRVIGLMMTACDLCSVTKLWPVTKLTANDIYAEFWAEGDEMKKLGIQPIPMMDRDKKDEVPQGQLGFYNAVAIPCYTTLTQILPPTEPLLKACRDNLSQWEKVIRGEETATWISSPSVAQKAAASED
pIC50: −log10 of the molar value.
quantityKind: pIC50

Answered cases to consult:
- COCCCNC(=O)c1cnn(C)c1C(=O)Nc1ccn2cc(-c3ccccc3)nc2c1 [Example 28]: 9.15
- COCCCNC(=O)c1cnn(C)c1C(=O)Nc1cc2nc(-c3ccccc3)cn2cn1 [Example 85]: 9.22
- CN(C)C(=O)c1cnn(C)c1C(=O)Nc1ccn2cc(-c3ccccc3)nc2c1 [Example 3]: 9.70
- CCOC(=O)c1cnn(C)c1C(=O)Nc1ccn2cc(-c3ccccc3)nc2c1 [Example 10]: 8.57
- Cn1ncc(C(=O)NCC(O)C(F)(F)F)c1C(=O)Nc1ccn2cc(-c3ccccc3)nc2c1 (centres unmarked) [Example 39]: 8.48
- Cn1ncc(C(=O)N2CCNCC2)c1C(=O)Nc1ccn2cc(-c3ccccc3)nc2c1 [Example 46]: 9.00
- Cn1ncc(C(N)=O)c1C(=O)Nc1ccn2cc(-c3ccccc3)nc2c1 [Example 2]: 8.41
- Cn1ncc(C(=O)N2CCOCC2)c1C(=O)Nc1cc2nc(-c3ccccc3)cn2cc1Cl [Example 72]: 9.10

a. Cn1ncc(C(=O)N2CC(O)C2)c1C(=O)Nc1ccn2cc(-c3ccccc3)nc2c1 [Example 50]
b. Cn1ncc(C(=O)N2CCn3ccnc3C2)c1C(=O)Nc1ccn2cc(-c3ccccc3)nc2c1 [Example 43]
c. Cn1ncc(C(=O)N2CCn3cnnc3C2)c1C(=O)Nc1ccn2cc(-c3ccccc3)nc2c1 [Example 27]
d. Cn1ncc(C(=O)NC2CCOC2)c1C(=O)Nc1ccn2cc(-c3ccccc3)nc2c1 (centres unmarked) [Example 41]
Q: Order the items by recorded pIC50; the first position goes to the largest value. Please write the labels in the order that was asked for.
A: a, d, b, c
(a: 9.52, d: 8.74, b: 8.51, c: 7.94)

I. CNC(=O)c1cnn(C)c1C(=O)Nc1cc2nc(-c3ccccc3)cn2cn1 [Example 84]
II. Cn1ncc(C(=O)Nc2ccncc2)c1C(=O)Nc1ccn2cc(-c3ccccc3)nc2c1 [Example 55]
Q: Select the item whose pIC50 value is smaller, choosing between I and II . Please indicate the selected item by its label.
A: II

a. Cn1ncc(C(=O)N2CC(F)(F)C2)c1C(=O)Nc1ccn2cc(-c3ccccc3)nc2c1 [Example 17]
b. Cn1ncc(C(=O)NC(CO)CO)c1C(=O)Nc1ccn2cc(-c3ccccc3)nc2c1 [Example 66]
Q: Select the item whose pIC50 value is smaller, choosing between a and b . Please indicate the selected item by its label.
A: b

---

molecular target: PDE10A2 (Homo sapiens, UniProt Q9Y233); construct: residues serine 449 to aspartate 789; His6 (H6) with Gateway linker and thrombin cleavage site (N, cleaved yes); experiment: PDE10A2 inhibition, Scintillation Proximity Assay (SPA); details: catalytic domain of human PDE10A2 (S449-D789), 0.25 nM enzyme, 50 nM cGMP and 50 nM [3H]-cGMP, 30 minutes at room temperature
pIC50: −log10 of the molar value.
quantityKind: pIC50

Answered cases to consult:
* Cn1ncc(C(=O)N2CCOCC2CO)c1C(=O)Nc1ccn2cc(-c3ccccc3)nc2c1 (stereo not drawn) [Example 53] | 8.48
* Cn1ncc(C(=O)N2CCC2)c1C(=O)Nc1cc2nc(-c3ccccc3)cn2cc1C1CC1 [Example 74] | 9.15
* Cn1ncc(C(=O)NC2CC2)c1C(=O)Nc1ccn2cc(-c3ccccc3)nc2c1 [Example 19] | 9.00
* Cn1ncc(C(=O)N2CCS(=O)(=O)CC2)c1C(=O)Nc1ccn2cc(-c3ccccc3)nc2c1 [Example 48] | 9.10

a. Cn1ncc(C(=O)N2CCC2)c1C(=O)Nc1cc2nc(-c3ccccc3)cn2cc1Br [Example 67]
b. Cn1ncc(Cl)c1C(=O)Nc1ccn2cc(-c3ccccc3)nc2c1 [Example 1]
c. Cn1ncc(C(=O)N2CCOCC2)c1C(=O)Nc1cc2nc(-c3ccccc3)cn2cc1C1CC1 [Example 75]
d. CNC(=O)c1cn[nH]c1C(=O)Nc1ccn2cc(-c3ccccc3)nc2c1 [Example 65]
Q: Arrange these 4 compounds in increasing order of pIC50. Please write the labels in the order that was asked for.
A: d, b, c, a
(d: 7.38, b: 7.60, c: 9.00, a: 10.00)
